molecular target: HDAC1 (Homo sapiens (Human), UniProt Q13547); assay: HDAC-1 activity inhibition, fluorescence (Synergy MX); settings: trypsin and Ac-peptide substrate, 60 minutes, room temperature
Sequence (Q13547 whole entry, species assumed): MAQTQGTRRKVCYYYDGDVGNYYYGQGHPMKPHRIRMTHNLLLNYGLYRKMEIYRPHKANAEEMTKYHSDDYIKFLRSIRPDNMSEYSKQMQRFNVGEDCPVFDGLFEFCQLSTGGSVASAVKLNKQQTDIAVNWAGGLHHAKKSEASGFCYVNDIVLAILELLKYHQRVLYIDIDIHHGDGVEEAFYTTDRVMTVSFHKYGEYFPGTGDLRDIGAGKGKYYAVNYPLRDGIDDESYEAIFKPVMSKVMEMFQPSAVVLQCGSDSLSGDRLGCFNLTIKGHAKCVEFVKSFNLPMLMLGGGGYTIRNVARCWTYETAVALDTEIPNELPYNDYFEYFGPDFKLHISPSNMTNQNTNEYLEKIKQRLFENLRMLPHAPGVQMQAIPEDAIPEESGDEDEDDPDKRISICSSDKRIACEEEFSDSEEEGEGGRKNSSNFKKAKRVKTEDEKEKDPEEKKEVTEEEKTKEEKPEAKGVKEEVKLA
Property Label: IC50

# Compound, Tested On, IC50
records = [
    ("O=C(CCCCCCn1ncc2ccc(-c3cn4ccnc4c(Nc4ccc(N5CCOCC5)cc4)n3)cc21)NO [Compound 14]", "HDAC1 (Homo sapiens (Human), UniProt Q13547)", "< 0.02 µM"),
]

I would be grateful if you could share the reported IC50 for CN(CCOCCC(=O)NO)c1ccc(Nc2nc(-c3ccc4cn[nH]c4c3)cn3ccnc23)cc1 [Compound 22] .
< 0.5 µM

Record request: IC50 value, item CN(CCCCCCC(=O)NO)c1ccc(Nc2nc(-c3ccc4cn[nH]c4c3)cn3ccnc23)cc1 [Compound 20]
< 0.02 µM

Fill blank: measured IC50 of the compound O=C(NO)c1ccc(NC(=O)c2cccc(-c3cn4ccnc4c(Nc4ccc(N5CCOCC5)cc4)n3)c2)cc1 [Compound 13] is ____.
< 0.2 µM

Which IC50 is listed for CN(CCN(C)c1ncc(C(=O)NO)cn1)c1ccc(Nc2nc(-c3ccc4cn[nH]c4c3)cn3ccnc23)cc1 [Compound 23] ?
< 0.03 µM
